assay: Chemical stability of the compound in phosphate buffer assessed as unchanged compound after 3 hrs at pH 7.4 by RP-HPLC analysis; assay type: physicochemical; conditions: read-out: Stability
measurementName: remaining at 3 h (%)
I only need the number, in %, no unit after it.

{"compound": "CC(=O)Oc1ccccc1C(=O)OCOC(=O)OCCOc1ccc(-c2cc(=S)ss2)cc1", "unitAnnotation": "%", "remaining at 3 h": 96}
{"compound": "CC(=O)Oc1ccccc1C(=O)OCOC(=O)OCC(CO[N+](=O)[O-])O[N+](=O)[O-] (configuration not stated)", "unitAnnotation": "%", "remaining at 3 h": 85}
{"compound": "CC(=O)Oc1ccccc1C(=O)OCOC(=O)Oc1ccc(CCCO[N+](=O)[O-])cc1", "unitAnnotation": "%", "remaining at 3 h": 98}

Qu. Given the entry CC(=O)Oc1ccccc1C(=O)OCOC(=O)Oc1ccc(CC(CO[N+](=O)[O-])O[N+](=O)[O-])cc1 (configuration not stated) , report its measured remaining at 3 h.
Ans. 95

Qu. Given the entry CC(=O)Oc1ccccc1C(=O)O , report its measured remaining at 3 h.
Ans. 90

Qu. Given the entry CC(=O)Oc1ccccc1C(=O)OCOC(=O)Oc1ccc(-c2cc(=S)ss2)cc1 , report its measured remaining at 3 h.
Ans. 80

Qu. Given the entry CC(=O)Oc1ccccc1C(=O)OCOC(=O)OCCCO[N+](=O)[O-] , report its measured remaining at 3 h.
Ans. 98

###

experiment: Half life in human serum at 200 uM by RP-HPLC analysis; format: ADME
# note: exactly 2 min is not below, so it is criterion not met; use criterion met for half-life at 200 µM strictly under it

Recorded results for 6 compounds are shown here.
{"compound": "CC(=O)Oc1ccccc1C(=O)OCOC(=O)Oc1ccc(-c2cc(=S)ss2)cc1", "group": "criterion not met"}
{"compound": "CC(=O)Oc1ccccc1C(=O)OCOC(=O)OCCOc1ccc(-c2cc(=S)ss2)cc1", "group": "criterion not met"}
{"compound": "CC(=O)Oc1ccccc1C(=O)OCOC(=O)OCC(CO[N+](=O)[O-])O[N+](=O)[O-] (configuration not stated)", "group": "criterion met"}
{"compound": "CC(=O)Oc1ccccc1C(=O)OCOC(=O)OCCCO[N+](=O)[O-]", "group": "criterion met"}
{"compound": "CC(=O)Oc1ccccc1C(=O)OCOC(=O)Oc1ccc(CC(CO[N+](=O)[O-])O[N+](=O)[O-])cc1 (configuration not stated)", "group": "criterion not met"}
{"compound": "CC(=O)Oc1ccccc1C(=O)O", "group": "criterion not met"}

Switching to the query record.
Qu. Threshold test, half-life at 200 µM < 2 min: CC(=O)Oc1ccccc1C(=O)OCOC(=O)Oc1ccc(CCCO[N+](=O)[O-])cc1
Ans. criterion met

###

organism: Homo sapiens; experiment: Chemical stability of compound in human serum assessed as maximal amount of aspirin released; type: ADME
Activity reference
I only need the number, in %, no unit after it.

{"molecule": "CC(=O)Oc1ccccc1C(=O)OCOC(=O)OCCCO[N+](=O)[O-]", "measurementName": "Activity", "measured": 9}
{"molecule": "CC(=O)Oc1ccccc1C(=O)OCOC(=O)OCCOc1ccc(-c2cc(=S)ss2)cc1", "measurementName": "Activity", "measured": 42}
{"molecule": "CC(=O)Oc1ccccc1C(=O)OCOC(=O)OCC(CO[N+](=O)[O-])O[N+](=O)[O-] (stereo unspecified)", "measurementName": "Activity", "measured": 25}
{"molecule": "CC(=O)Oc1ccccc1C(=O)OCOC(=O)Oc1ccc(-c2cc(=S)ss2)cc1", "measurementName": "Activity", "measured": 36}
{"molecule": "CC(=O)Oc1ccccc1C(=O)OCOC(=O)Oc1ccc(CCCO[N+](=O)[O-])cc1", "measurementName": "Activity", "measured": 40}

Qu. Given the entry CC(=O)Oc1ccccc1C(=O)OCOC(=O)Oc1ccc(CC(CO[N+](=O)[O-])O[N+](=O)[O-])cc1 (stereo unspecified) , report its measured Activity.
Ans. 34
